molecular target: T1, recombinant human heat shock cognate 71 kDa protein (Hsc70) (human, UniProt P11142 1-646, limits assumed); assay: SEC of peptide-Hsc70 mixture; peptide:Hsc70 molar ratio 2:1
T1 construct: also called rhHsc70; human Hsc70
T1 sequence (P11142 whole entry): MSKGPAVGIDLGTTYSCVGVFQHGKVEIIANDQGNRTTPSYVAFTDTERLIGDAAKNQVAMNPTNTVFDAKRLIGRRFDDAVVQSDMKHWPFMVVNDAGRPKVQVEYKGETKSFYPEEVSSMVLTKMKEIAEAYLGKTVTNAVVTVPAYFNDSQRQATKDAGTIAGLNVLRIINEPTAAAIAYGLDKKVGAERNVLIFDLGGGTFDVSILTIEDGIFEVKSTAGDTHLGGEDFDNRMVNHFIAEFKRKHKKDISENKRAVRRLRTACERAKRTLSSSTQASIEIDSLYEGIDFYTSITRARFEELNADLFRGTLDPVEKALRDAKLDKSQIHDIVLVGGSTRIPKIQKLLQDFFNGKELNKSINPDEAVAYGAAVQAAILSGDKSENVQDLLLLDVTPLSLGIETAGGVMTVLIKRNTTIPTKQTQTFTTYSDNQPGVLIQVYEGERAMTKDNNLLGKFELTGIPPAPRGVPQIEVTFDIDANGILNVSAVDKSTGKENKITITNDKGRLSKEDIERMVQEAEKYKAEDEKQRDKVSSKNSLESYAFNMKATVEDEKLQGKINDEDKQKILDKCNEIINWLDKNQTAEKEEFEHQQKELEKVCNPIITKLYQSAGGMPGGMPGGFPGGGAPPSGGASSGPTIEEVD
Overview of recorded Percent complexation with Hsc70 for various binders

BINDER | Percent complexation with Hsc70 / %
FFRKNWLRLFW (Synthetic peptide) [PEP010] | 79.3
FFRKNFLRLTF (Synthetic peptide) [PEP027] | 85.6
FFRKNLLRLTW (Synthetic peptide) [PEP155] | 82.9
FFRKNWLRLLW (Synthetic peptide) [PEP009] | 85.3
